# TEST_TARGET: NAD(P)H dehydrogenase [quinone] 1 (Homo sapiens)
# ASSAY_REMARKS: Inhibitory activity against human NAD(P)H quinone reductase at 50 uM
Property: inhibition; scope: individual molecules
Dear colleague, please return just the value in %, with no unit written.

# count of solved cases: 2
COC1=CC(=O)c2c(c(COC(N)=O)c(C(C)C)n2C)C1=O : 0
CC1CN1C1=CC(=O)c2c(cc(C(=O)NCCN3CCOCC3)n2C)C1=O (stereo unspecified) : 17.8

Qu. Please give the documented inhibition of CC1CN1C1=CC(=O)c2c(c(CO)c(-c3ccccc3)n2C)C1=O (stereo unspecified)
Ans. 0

Qu. Tell us which inhibition value is on record for `COC1=CC(=O)c2c(c(COC(=O)c3ccccc3)cn2C)C1=O`
Ans. 99.6

Qu. # return recorded inhibition for entry `COC1=CC(=O)c2c(c(CO)c(-c3ccccc3)n2C)C1=O`
Ans. 2.75
